The measurements presented in this section are drawn from ChEMBL document CHEMBL3421546.

- test_description: Cytotoxic activity against human HepG2 cells assessed as reduction in cell viability incubated for 24 hrs by MTT assay
- Format: cell-based
Entries and their measured CC50 at 24 h follow.
// return numeric value only (unit: µg/mL, not printed)

NS(=O)(=O)c1ccc(Nc2ccnc3cc(Cl)ccc23)cc1 | 234

Lab note: next compound to report on.
Sample O=S(=O)(Nc1ccccn1)c1ccc(Nc2ccnc3cc(Cl)ccc23)cc1 — what was its CC50 at 24 h?
252

----------
- test_description: Selectivity index, ratio of CC50 for human HeLa cells to IC50 for CQ-sensitive Plasmodium falciparum 3D7
- Type: functional
Strictly below 30 in Ratio CC50/IC50: Criterion met. Otherwise: Criterion not met.

NS(=O)(=O)c1ccc(Nc2ccnc3cc(Cl)ccc23)cc1 | Criterion not met

Criterion: Ratio CC50/IC50 strictly below 30. Is it met by O=S(=O)(Nc1nccs1)c1ccc(Nc2ccnc3cc(Cl)ccc23)cc1 ?
Criterion not met

Here is the next compound: Cc1cc(NS(=O)(=O)c2ccc(Nc3ccnc4cc(Cl)ccc34)cc2)no1
Criterion met

Here is the next compound: CCN(CC)CCCC(C)Nc1ccnc2cc(Cl)ccc12 (configuration not stated)
Criterion not met

Here is the next compound: O=S(=O)(Nc1ccccn1)c1ccc(Nc2ccnc3cc(Cl)ccc23)cc1
Criterion not met

Here is the next compound: NNC(=O)c1cccnc1 [NICOTINIC ACID HYDRAZIDE]
Criterion met

----------
- test_description: Cytotoxic activity against human HepG2 cells assessed as cell viability at 1 ug/ml incubated for 24 hrs by MTT assay
- Type: cell-based
- condition_label: read-out: Activity
measured_attribute: viability at 24 h, 1 ug/ml (%)
// return numeric value only (unit: %, not printed)

O=S(=O)(Nc1ccccn1)c1ccc(Nc2ccnc3cc(Cl)ccc23)cc1 | 97

Sample NS(=O)(=O)c1ccc(Nc2ccnc3cc(Cl)ccc23)cc1 — what was its viability at 24 h, 1 ug/ml?
94

Here is the next compound: O=S(=O)(Nc1ncccn1)c1ccc(Nc2ccnc3cc(Cl)ccc23)cc1
90

Here is the next compound: CCN(CC)CCCC(C)Nc1ccnc2cc(Cl)ccc12 (centres undefined)
97

----------
- test_description: Cytotoxic activity against human HeLa cells assessed as cell viability at 100 ug/ml incubated for 24 hrs by MTT assay
- Type: cell-based
- condition_label: read-out: Activity
Strictly below 80% in viability at 24 h, 100 ug/ml: 1. Otherwise: 0.

Reference set, count: 2
O=S(=O)(Nc1ncccn1)c1ccc(Nc2ccnc3cc(Cl)ccc23)cc1 | 1
O=S(=O)(Nc1nccs1)c1ccc(Nc2ccnc3cc(Cl)ccc23)cc1 | 1

Criterion: viability at 24 h, 100 ug/ml strictly below 80%. Is it met by NNC(=O)c1cccnc1 [NICOTINIC ACID HYDRAZIDE] ?
1

Here is the next compound: CCN(CC)CCCC(C)Nc1ccnc2cc(Cl)ccc12 (configuration not stated) [CHLOROQUINE]
0

Here is the next compound: O=S(=O)(Nc1ccccn1)c1ccc(Nc2ccnc3cc(Cl)ccc23)cc1
1

Here is the next compound: NS(=O)(=O)c1ccc(Nc2ccnc3cc(Cl)ccc23)cc1
0

Here is the next compound: Cc1cc(NS(=O)(=O)c2ccc(Nc3ccnc4cc(Cl)ccc34)cc2)no1
1

----------
Entries and their measured viability at 24 h, 1000 ug/ml follow.
- test_description: Cytotoxic activity against human HepG2 cells assessed as cell viability at 1000 ug/ml incubated for 24 hrs by MTT assay
- Assay type: cell-based
- condition_label: read-out: Activity
// return numeric value only (unit: %, not printed)

Sample O=S(=O)(Nc1ccccn1)c1ccc(Nc2ccnc3cc(Cl)ccc23)cc1 — what was its viability at 24 h, 1000 ug/ml?
48

Here is the next molecule: NS(=O)(=O)c1ccc(Nc2ccnc3cc(Cl)ccc23)cc1
43

Here is the next molecule: O=S(=O)(Nc1ncccn1)c1ccc(Nc2ccnc3cc(Cl)ccc23)cc1
68

Here is the next molecule: CCN(CC)CCCC(C)Nc1ccnc2cc(Cl)ccc12 (centres undefined)
60

----------
- test_description: Cytotoxic activity against human HeLa cells assessed as cell viability at 0.1 ug/ml incubated for 24 hrs by MTT assay
- Assay type: cell-based
- condition_label: read-out: Activity
measured_attribute: viability at 24 h, 0.1 ug/ml (%)
// return numeric value only (unit: %, not printed)

Would you please look over these solved cases?
NNC(=O)c1cccnc1 [NICOTINIC ACID HYDRAZIDE] | 88
NS(=O)(=O)c1ccc(Nc2ccnc3cc(Cl)ccc23)cc1 | 93
CCN(CC)CCCC(C)Nc1ccnc2cc(Cl)ccc12 (configuration not stated) [CHLOROQUINE] | 98

Sample O=S(=O)(Nc1ccccn1)c1ccc(Nc2ccnc3cc(Cl)ccc23)cc1 — what was its viability at 24 h, 0.1 ug/ml?
82

Here is the next molecule: O=S(=O)(Nc1ncccn1)c1ccc(Nc2ccnc3cc(Cl)ccc23)cc1
85

Here is the next molecule: Cc1cc(NS(=O)(=O)c2ccc(Nc3ccnc4cc(Cl)ccc34)cc2)no1
67

Here is the next molecule: O=S(=O)(Nc1nccs1)c1ccc(Nc2ccnc3cc(Cl)ccc23)cc1
74
